# assay system: Rat M4 (Rattus norvegicus)
# Construct: expressed in transfected cells; host or cells: CHO-K1 (ATCC), stably co-expressing chimeric G protein Gqi5
# Sequence (P08485 1-478): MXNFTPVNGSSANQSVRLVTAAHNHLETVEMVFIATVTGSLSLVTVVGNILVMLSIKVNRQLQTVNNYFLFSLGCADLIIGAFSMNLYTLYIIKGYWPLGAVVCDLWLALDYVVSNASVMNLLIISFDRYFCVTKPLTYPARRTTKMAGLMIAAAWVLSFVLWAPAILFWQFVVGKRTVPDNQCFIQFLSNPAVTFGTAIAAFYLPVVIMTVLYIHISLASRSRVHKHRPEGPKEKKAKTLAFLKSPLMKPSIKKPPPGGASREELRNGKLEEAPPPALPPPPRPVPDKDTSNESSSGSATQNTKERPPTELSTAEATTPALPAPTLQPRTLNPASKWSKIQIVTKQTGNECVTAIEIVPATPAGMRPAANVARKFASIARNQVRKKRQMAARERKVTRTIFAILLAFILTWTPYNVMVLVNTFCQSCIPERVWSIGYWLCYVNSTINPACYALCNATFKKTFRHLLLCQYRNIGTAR
# test: mAChR M4 cell-based functional assay (calcium flux, antagonist mode vs EC80 acetylcholine), rat M4/Gqi5/CHO-K1 cells
# experimental setup: CHO-K1; % ACh maximum at 30 μM; rat M4; read-out: Rat M4 Emin (%)
readout label: remaining activity at 30 µM (%)

a = O=S(=O)(c1ccc(N[C@H]2C[C@@H]3CN(Cc4ccc5cc[nH]c5c4)C[C@@H]3C2)nn1)C1CCCCC1
b = Cc1cc(CN2C[C@H]3C[C@H](Nc4ccc(S(=O)(=O)C5CCCCC5)nn4)C[C@H]3C2)nn1C
Compare the recorded remaining activity at 30 µM of a and b ; state which is larger. Label of pick, please. b

Source listed as patent US20230183218A1.
